Attribution: ChEMBL document CHEMBL4689842

test system: Fibroblast; assay: Multiplex assay against human fibroblast; assay type: toxicity, cell-based; conditions: 12 h, 10 µM, compound concentration 10 uM, replicate 2
# maps each entry to its Population Pyknosed Nuclei (%)
Field format: number, assumed %, no unit text.

Record excerpt, results attached:
{"Smiles Data": "O=C(Nc1ccc(-c2ccnc(Nc3ccc(N4CCOCC4)cc3)n2)cc1)[C@@H]1CCCN1", "Readout Value": 14}
{"Smiles Data": "Cc1cc(C)c(S(=O)(=O)N(Cc2ccc(-c3cccc(S(C)(=O)=O)c3)cc2)Cc2ccc(C(F)(F)F)o2)c(C)c1", "Readout Value": 8}
{"Smiles Data": "COCC(=O)NC/C=C/c1ccc2ncnc(Nc3ccc(Oc4ccc(C)nc4)c(C)c3)c2c1", "Readout Value": 18}

// moving on: another record for Population Pyknosed Nuclei (%)
Item `CCN1CCN(Cc2ccc(Nc3ncc(F)c(-c4cc(F)c5nc(C)n(C(C)C)c5c4)n3)nc2)CC1.CS(=O)(=O)O` was tested on Fibroblast; the reported Population Pyknosed Nuclei (%) is 45
